These molecules were tested on UniProt:P62508; pIC50 is the recorded read-out.
Sequence (P62508 233-457 limits assumed): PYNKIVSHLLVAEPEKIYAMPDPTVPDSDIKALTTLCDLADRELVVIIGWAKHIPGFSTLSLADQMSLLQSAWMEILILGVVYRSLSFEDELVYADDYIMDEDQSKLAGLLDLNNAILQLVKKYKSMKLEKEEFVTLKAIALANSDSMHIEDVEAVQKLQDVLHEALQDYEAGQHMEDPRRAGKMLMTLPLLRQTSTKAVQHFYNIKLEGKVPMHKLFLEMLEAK
API: returns pIC50 as number; meaning -log10 of concentration in mol/L.

Solved cases below.
{"molecule": "CN(C)CCOc1ccc(/C(=C(/CCCO)c2ccc3ccncc3c2)c2ccc(O)cc2)cc1 [Compound 15j]", "pIC50": 5.33}
{"molecule": "CN(C)CCOc1ccc(/C(=C(/CCCO)c2cccnc2)c2ccc(O)cc2)cc1 [Compound 15d]", "pIC50": 5.51}

As a next step, examine the molecule that follows.
Per the reported UniProt:P62508 data, COCCC/C(=C(\c1ccc(O)cc1)c1ccc(OCCN(C)C)cc1)c1cccnc1 [Compound 13a] has pIC50 of 6.00
